Numbers sourced from the supplement of paper PMC10065799.

Form field: phosphorylation enrichment (one value per entry).
# testedOn: EPHB1 (UniProt P54762)
# Sequence (P54762 whole entry, looked up): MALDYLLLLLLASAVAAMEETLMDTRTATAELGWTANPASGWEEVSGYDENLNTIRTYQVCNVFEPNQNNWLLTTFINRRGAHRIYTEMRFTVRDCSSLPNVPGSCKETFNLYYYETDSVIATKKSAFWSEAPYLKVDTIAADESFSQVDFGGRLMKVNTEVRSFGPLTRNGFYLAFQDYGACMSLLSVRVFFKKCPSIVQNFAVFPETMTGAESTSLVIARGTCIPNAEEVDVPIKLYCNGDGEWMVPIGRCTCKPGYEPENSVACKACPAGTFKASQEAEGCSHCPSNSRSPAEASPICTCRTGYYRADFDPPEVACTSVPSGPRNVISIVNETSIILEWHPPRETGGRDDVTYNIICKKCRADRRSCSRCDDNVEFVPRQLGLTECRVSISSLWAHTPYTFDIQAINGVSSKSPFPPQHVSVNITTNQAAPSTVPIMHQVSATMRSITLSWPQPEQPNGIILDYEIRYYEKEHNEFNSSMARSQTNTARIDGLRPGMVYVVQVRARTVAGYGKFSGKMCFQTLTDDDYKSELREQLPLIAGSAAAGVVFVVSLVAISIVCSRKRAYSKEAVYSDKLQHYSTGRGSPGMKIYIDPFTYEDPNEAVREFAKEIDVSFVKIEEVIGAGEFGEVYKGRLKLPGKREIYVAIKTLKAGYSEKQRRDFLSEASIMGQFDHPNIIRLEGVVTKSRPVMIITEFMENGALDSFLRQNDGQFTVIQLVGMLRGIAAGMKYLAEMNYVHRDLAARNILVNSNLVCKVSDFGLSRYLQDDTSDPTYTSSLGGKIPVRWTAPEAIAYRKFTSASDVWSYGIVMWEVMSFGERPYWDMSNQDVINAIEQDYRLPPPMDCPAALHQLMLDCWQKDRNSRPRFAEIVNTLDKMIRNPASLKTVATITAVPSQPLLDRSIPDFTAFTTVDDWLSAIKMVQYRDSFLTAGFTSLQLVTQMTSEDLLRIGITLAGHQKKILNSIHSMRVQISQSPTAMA
# test: phosphorylation enrichment, bacterial display (enrichment ratio); higher = better substrate or ligand; peptides without Tyr show the background;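 note: 11-residue human phosphosite peptides and single-mutation variants displayed on the E. coli surface, counted by deep sequencing, each peptide's frequency after selection divided by its frequency in the unselected input library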;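 note: frequency after pTyr selection over input frequency; kinase dosed for 20-30% of maximal phosphorylation in three min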
quantityMeasured: phosphorylation enrichment

- monomerSequence: "PGLRGYPGLSG [COL4A2_Y306]"
  testedOn: "EPHB1 (UniProt P54762)"
  assayResult: 0.894
- monomerSequence: "SLIDMYSKVLD [OPA1_Y268_E270K]"
  testedOn: "EPHB1 (UniProt P54762)"
  assayResult: 0.462
- monomerSequence: "KASIMYPSSNC [CXCL11_Y52_N55S]"
  testedOn: "EPHB1 (UniProt P54762)"
  assayResult: 0.411
- monomerSequence: "PTTKTYFPHFA [HBA1_Y43_D48A]"
  testedOn: "EPHB1 (UniProt P54762)"
  assayResult: 0.572
- monomerSequence: "KGYRGYSYDDI [TMEM230_Y110]"
  testedOn: "EPHB1 (UniProt P54762)"
  assayResult: 0.407
- monomerSequence: "ECKLLYSRKEG [PTPN11_Y263]"
  testedOn: "EPHB1 (UniProt P54762)"
  assayResult: 0.436
- monomerSequence: "FSTDCYRVGGH [NTRK2_Y707_Y706C_YF]"
  testedOn: "EPHB1 (UniProt P54762)"
  assayResult: 0.592
- monomerSequence: "KPGVNYYFQVS"
  testedOn: "EPHB1 (UniProt P54762)"
  assayResult: 0.699
- monomerSequence: "KRGASYILKLA [SERPINB1_Y84]"
  testedOn: "EPHB1 (UniProt P54762)"
  assayResult: 0.37
- monomerSequence: "TQNAVYSAANY [DDX5_Y535_G533A]"
  testedOn: "EPHB1 (UniProt P54762)"
  assayResult: 2.46
- monomerSequence: "HRGFLYLAIEF [TEK_Y899_Y897F_YF]"
  testedOn: "EPHB1 (UniProt P54762)"
  assayResult: 0.765
- monomerSequence: "CTTIHCNYMCN [TP53_Y234_Y234C]"
  testedOn: "EPHB1 (UniProt P54762)"
  assayResult: 0.784
- monomerSequence: "PTYENYANSTQ [SLC12A3_Y70_H69N]"
  testedOn: "EPHB1 (UniProt P54762)"
  assayResult: 4.39
- monomerSequence: "FADIAYNFRHA [PAH_Y166_G171A_YF]"
  testedOn: "EPHB1 (UniProt P54762)"
  assayResult: 0.293
- monomerSequence: "FFFDLYGGEKF [PTPN11_Y66_D61Y_YF]"
  testedOn: "EPHB1 (UniProt P54762)"
  assayResult: 0.53
- monomerSequence: "RNYGTYTAGLS [RHBDD1_Y264_D262G]"
  testedOn: "EPHB1 (UniProt P54762)"
  assayResult: 0.804
- monomerSequence: "KVKPIYFHTQG [AR_Y916]"
  testedOn: "EPHB1 (UniProt P54762)"
  assayResult: 0.358
- monomerSequence: "HGEAYYSEVKP [PAK5_Y182]"
  testedOn: "EPHB1 (UniProt P54762)"
  assayResult: 2.27
- monomerSequence: "EFKDAYKFAAD [BRDT_Y335_YF]"
  testedOn: "EPHB1 (UniProt P54762)"
  assayResult: 0.367
- monomerSequence: "DPNQQYFIAMD [TBX15_Y159_H156N_YF]"
  testedOn: "EPHB1 (UniProt P54762)"
  assayResult: 0.466
- monomerSequence: "GKTQQYECKWF [BCR_Y751_D752E_YF]"
  testedOn: "EPHB1 (UniProt P54762)"
  assayResult: 0.509
- monomerSequence: "TPTFPYLLPKS [PLD2_Y580_YF]"
  testedOn: "EPHB1 (UniProt P54762)"
  assayResult: 0.44
- monomerSequence: "VNTMLYEKFTF [TEK_Y1108_T1106M_YF]"
  testedOn: "EPHB1 (UniProt P54762)"
  assayResult: 6.33
- monomerSequence: "RMDGTYACSFT [FLNB_Y704_YF]"
  testedOn: "EPHB1 (UniProt P54762)"
  assayResult: 1.03
- monomerSequence: "VQVAFYTVMMN [SPATA17_Y84_M86V_YF]"
  testedOn: "EPHB1 (UniProt P54762)"
  assayResult: 1.17
- monomerSequence: "YVKEPYIQSRF [HIPK4_Y175]"
  testedOn: "EPHB1 (UniProt P54762)"
  assayResult: 0.406
- monomerSequence: "SGVVPYEPPEV [TP53_Y220_V216G]"
  testedOn: "EPHB1 (UniProt P54762)"
  assayResult: 0.581
- monomerSequence: "GESQGYDIMEP [MSH2_Y863]"
  testedOn: "EPHB1 (UniProt P54762)"
  assayResult: 0.541
- monomerSequence: "HNLDYYKETTN [FGFR3_Y648_K650E]"
  testedOn: "EPHB1 (UniProt P54762)"
  assayResult: 0.633
